Assay: folding stability dG unfold (combined trypsin and chymotrypsin); higher = more stable
measurement_kind: folding stability dG unfold (kcal/mol)
API: value field is a number in kcal/mol; no unit string.

# sequence SAGGSAGGSVIPYFDENAVALLVKGPGDYYRIIFKPNDGYLVLLLPKEVIKSKPIPIGELLKKSAGGSAGGS [r20_90_TrMRF] ; its folding stability dG unfold = 0.948

Lab book: folding stability dG unfold of SAGGSAGGSAGGSKKKPPKKITLVVWNEETGELTKVEFDAETKEVKVEKVPIKPGDILLSAGGSAGGSAGGS [r4_409_TrROS_Hall] noted as 0.988

// field: folding stability dG unfold; key: SVEELAKKLAELFPNVKVTVTEEEIDGKKVKTIRIENKKTGKTYEITVLPNGEILITDSNGKKFSLEELLSA [r9_1176_TrROS_Hall] ; value = 4.86

The recorded folding stability dG unfold for entry SAGGSAGGSAGGMWYIRITYDNGREIWIPIGDPITIKHKDGKPVQIKEVEVYPLPPGQISAGGSAGGSAGGS [r10_20_TrROS] equals 2.58

Note to self: folding stability dG unfold recorded for SAGGSAGGSAGDIPAIPKVIFIPYPIEKIEVFEDSVVVRVIHPDGGSETIVFPDRALILGSAGGSAGGSAGG [r11_957_TrMRF] was 1.53

folding stability dG unfold reported for this sequence SAGKEVIVITVEELEKLLKALKPGEKVKIVVINKDGKKVTFTAEVKDGKVEIKEAEKDIKPGDKIFIEKSAG [r5_85_TrROS_Hall] : 3.09

// folding stability dG unfold value for SAGGSAGGMLRVRVETTLPGSGETLDLELEFPSEEEARRAIEALVPPEERAEVRVEFLPPGVPESAGGSAGG [r6_657_JUSTAS] : 1.06

The reported value for SAGSWIDKLPPSFTSSSPLAKRPDGTRVYAYEYTTESSPSILLVEFDASGRLRKIEKLDPETAAKAIAASAG [r5_73_JUSTAS] in terms of folding stability dG unfold is 1.22

get_value(item= SAGMVEIVHDPAGYYTVNVTLTKEGKPTSRTIRVPPELSPEEVKALVEELAKEEGVDDVEVTVIPLPESAGG [r19_31_JUSTAS] , readout=folding stability dG unfold) returns 1.41

Quick note, folding stability dG unfold for SAGGSAGGSSFSVEVIENPDSDVILRKIHFDNFTVIPLFDPSTGKIVSVVVQFPDGSWYTFPLSAGGSAGGS [r12_563_TrMRF] landed at 2.51

Per the record, SKTIMFQFDSIEEIKDFIKEAIDDGDPDQKIRIEWYPPGGRRQEHEIESPEDIIDFLENGPYWIRVEIEPSA [r9_589_TrROS] has folding stability dG unfold of 2.05

get_value(item= SAGGSAGGSMKTVKPTELLASLSPEEEVILTTPTSATRLTVEEVKNVPEDTPVDVEVVPRNAASAGGSAGGS [r12_501_JUSTAS] , readout=folding stability dG unfold) returns 0.244

Memo: SAGGSAGGSAGKFKLKIKEVHWRENPNGYEQVKVEIKIPGEEKKIWFPPGMSIDQILDQLSAGGSAGGSAGG [r11_1056_TrROS] , reported folding stability dG unfold: 0.732

The measured folding stability dG unfold associated with SAGGSASAEELAAELARRLAEELGLEVTKVEITEVTPDRVVVRVTVTVTLPNGEKVTRELTLVLEPSAGGSA [r15_276_TrROS_Hall] reads 3.05

Recorded folding stability dG unfold (sequence SAGKKTVTIVIRLKEPGERLSAEELAALLRELGLPPGAKVTVERRPDGYLVVTVEVDGKTVTIVIELEDSAG [r5_144_TrROS_Hall] ): 2.34

Entry SAGMETVKIKVRVKVTVRERLPDGTVKTREFELTLEIEVEVEPGQTAEELAKKLAEEFNIEEVEIEKVPSAG [r5_994_TrROS_Hall] ; folding stability dG unfold = 3.29

Looking up SAGGMKVKKIPVIVKILRKKDKKPIKEIPALAYKVDDKIYLVFEKPKDIKIAKEIAEKTGLPIEIYPSAGGS [r16_327_TrMRF] , I see its folding stability dG unfold listed as 1.66

Recorded folding stability dG unfold (sequence SAMTVTSSVTTQPVPDSSDTVTYTNITVTIGNQTVTYTETVTYSSTDPTLRTVTTLLPDGTTVTTTVPVGSA [r9_897_JUSTAS] ): 2.18

Note to self: folding stability dG unfold recorded for SAGGSFPIADVKEVKVEAYPETNTAKVPFTFPNGVTAVADAYLDPVTGRPVLVVRTPDGRLVVLPLSAGGSA [r2_490_TrMRF] was 1.3

Summary for this sequence, SAGDPDRPVVVVIHYVDPETGEPRVEVFPADRIERIEVSPDGVLRIHLPAYGLEIDFPLDVVDHVDIASAGG [r19_416_TrMRF] : folding stability dG unfold is 2.12

get_value(item= SAGGSAGGSATRVEVEWKDGYLVITKYETLPNGEWKEVKTIVIPIEGNDPIAIEKAKEVIEKLSAGGSAGGS [r12_169_JUSTAS] , readout=folding stability dG unfold) returns 2.9

Entry SATFKPGETVTIDELTIDGATITKVTVTVNADGTITITATIKPAPPPPPPPEVVRNPETGKTYPAGEVKDSA [r9_603_TrROS_Hall] — recorded folding stability dG unfold = 1.34

# folding stability dG unfold (sequence: SDEDLEILRVEATPDTIRILFKIPSNPDLYIEVPITVFEDETSRRILINARILRPETGEVIAEIPFEIPLSA [r9_18_TrMRF] ) is 3.78

---

Field: folding stability dG unfold. Provide a value for each of the sequences that follow.
Assay: folding stability dG unfold from trypsin proteolysis; higher = more stable
Don't forget the unit after the number, please.

// field: folding stability dG unfold; key: SAGMMYKITIKTKNGEKIEIEIPAEELENLTEEQLKELAKELAKKLEEEGIEVEKVEVKIEPVKPEELSAGG [r19_334_TrROS_Hall] ; value = 13.8 kJ/mol

Reported folding stability dG unfold for SAGGSAKFKLEATPLEDGTLIIPIEIEVTVEKPFPDPNGIPKIKPVKKKFRFLIIKDGDEIKIFLGSAGGSA [r15_883_TrMRF] was 6.67 kJ/mol

Data point: SAGGSAGGSSSVMTVTVEYPTPAPPVVRRETVEVPDPDGSLSEEELKEKYSPPDAVVTEVVRESAGGSAGGS [r12_611_JUSTAS] ; folding stability dG unfold = -4.48 kJ/mol

# folding stability dG unfold (sequence: SAGGSPVYKVEIRMTIVDKNGTVKSIVNLELTFKTEEEIEKFLESIPKETVVEIEIEKRTVEPPEKLSAGGS [r16_677_JUSTAS] ) is 8.87 kJ/mol

Note to self: folding stability dG unfold recorded for SAGGSAGGSSYLVEVISRKKVKVGGKERYVVPVRIPDNGELVELVVSEDVAKNIKPGDVVVLSSAGGSAGGS [r12_382_TrMRF] was -0.02 kJ/mol

For reference, reported folding stability dG unfold for SAGGSAGGSAGEEFIKKIPPGAEVKPITPLESEGKVYVKITVKKKDENGKWTEEEFIFKVSAGGSAGGSAGG [r17_140_JUSTAS] stands at 4.88 kJ/mol

Kindly note the recorded folding stability dG unfold for SAMKVYEIPIEIPISKYKPSDIIAALKKALDKLNIPFPEEIIKELTIISIKTGGNISTAIKTLLENGLLSAG [r14_364_TrMRF] , which is 7.09 kJ/mol

Reported folding stability dG unfold ( SAGGAKIKFDIEPTNNTIRVKIEIWLPGGPVEIVEEEPVRVDPNGGIWISFRIRYPDGKPQEFQIPISAGGS [r8_449_TrROS] ) = 11 kJ/mol

Query SAGGSAGGGRYLVLIEFENGFPLAYVFPSPEDVVEHTRLLEERLGYPIKRIEVYKIDPNGKAYASAGGSAGG [r6_162_TrMRF] yields folding stability dG unfold of 10.1 kJ/mol

Note to self: folding stability dG unfold recorded for SAGGSAGGSDKIVERLQKRFPNVRISNIQPTPDGVTIQIENPDGKEFTIPYDELEKHGIEIEPSAGGSAGGS [r12_3_TrROS] was 0.908 kJ/mol

Per the record, SAGKVKATYDPKTGTLTITFNVKKNEKINVKANIKIPEYNATVEKVETNGAKKDNEPVTVKIKLKNLKKSAG [r5_737_TrMRF] has folding stability dG unfold of 4.45 kJ/mol

Documented folding stability dG unfold of MKLLKITITITVTRQFPTVPVTSTTTITLEYTTPPDDPAAIEEAKKTAEEIAKKLGATDVTVTTEEVVLESS [r1_346_JUSTAS] : 14 kJ/mol

folding stability dG unfold for SGGMVNATVTVTLPLPDLPPVTLTVTITEEATPEEAEARKKALAAELEAELRAAAADAALPAPALTSALLSA [r9_626_JUSTAS] is 7.74 kJ/mol
